- SYSTEM_UNDER_TEST: T1, IL-2 receptor IL-2Rα/β/γ on human peripheral blood Treg cells (human, UniProt P01589 22-272; P14784 27-551; P31785 23-369)
- T1 sequence (looked up) 1: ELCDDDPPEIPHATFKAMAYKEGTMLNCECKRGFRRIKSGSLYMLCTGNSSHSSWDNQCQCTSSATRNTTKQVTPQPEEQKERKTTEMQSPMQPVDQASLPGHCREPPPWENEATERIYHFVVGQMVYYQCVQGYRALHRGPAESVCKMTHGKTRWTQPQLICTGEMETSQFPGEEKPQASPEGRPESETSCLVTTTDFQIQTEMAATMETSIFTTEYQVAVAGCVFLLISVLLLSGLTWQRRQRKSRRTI
- T1 sequence (looked up) 2: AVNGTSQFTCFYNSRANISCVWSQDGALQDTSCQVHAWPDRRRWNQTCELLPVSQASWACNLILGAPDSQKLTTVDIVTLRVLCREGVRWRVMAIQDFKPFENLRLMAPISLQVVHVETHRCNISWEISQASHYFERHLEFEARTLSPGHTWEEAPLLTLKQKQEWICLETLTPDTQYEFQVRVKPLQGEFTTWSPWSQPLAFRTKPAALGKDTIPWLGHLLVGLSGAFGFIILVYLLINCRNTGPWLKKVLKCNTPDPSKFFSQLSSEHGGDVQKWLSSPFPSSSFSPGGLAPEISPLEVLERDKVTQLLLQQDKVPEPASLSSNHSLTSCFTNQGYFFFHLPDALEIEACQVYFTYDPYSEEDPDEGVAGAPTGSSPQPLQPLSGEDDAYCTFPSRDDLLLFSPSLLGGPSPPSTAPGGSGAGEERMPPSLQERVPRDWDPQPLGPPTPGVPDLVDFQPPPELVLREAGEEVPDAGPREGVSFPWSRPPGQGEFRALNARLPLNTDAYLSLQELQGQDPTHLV
- T1 sequence (looked up) 3: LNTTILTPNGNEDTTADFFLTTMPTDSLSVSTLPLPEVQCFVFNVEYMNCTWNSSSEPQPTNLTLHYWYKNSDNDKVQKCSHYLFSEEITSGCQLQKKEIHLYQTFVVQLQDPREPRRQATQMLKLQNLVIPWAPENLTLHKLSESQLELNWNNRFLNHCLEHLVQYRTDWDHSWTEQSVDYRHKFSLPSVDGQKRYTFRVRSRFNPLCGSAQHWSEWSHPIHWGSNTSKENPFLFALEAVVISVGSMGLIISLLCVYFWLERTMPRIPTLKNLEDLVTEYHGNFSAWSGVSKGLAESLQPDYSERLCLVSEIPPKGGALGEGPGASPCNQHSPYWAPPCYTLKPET
- MEASUREMENT_PROTOCOL: cell-based or functional assay
TEST_READOUT: EC50 (STAT5 phosphorylation in human Treg cells) (nM)
State the answer as a number, implicitly in nM.

The measured EC50 (STAT5 phosphorylation in human Treg cells) associated with PEGylated IL-2-10 (ligand, mono-PEGylated with 20 kDa mPEG-butyraldehyde (sodium cyanoborohydride); site not stated, also called PEG-IL-2-10) MAPTSSSTKKTQLQLEHLLLDLQMILQGINSYKNPKLTRMLTAKFYMPKKATELKHLQCLEEELKPLEEVLNGAQSKNFHLRPRDLISNINVIVLELKGSETTFMCEYADETATIVEFLNRWITFAQSIISTLT reads 2.65

The measured EC50 (STAT5 phosphorylation in human Treg cells) associated with PEGylated IL-2-23 (ligand, mono-PEGylated with 20 kDa mPEG-butyraldehyde (sodium cyanoborohydride); site not stated, also called PEG-IL-2-23) MAPTSSSTKKTCLQLEHLLLDLQMILNGIQSMHIDATLYMPKKATELKHLQCLEEELKPLEEVLNLAQSKNFHLRPRDLISNINVIVLELKGSETTFMCEYADETATIVEFLNRWITFAQSIISTCT reads 4.24

The measured EC50 (STAT5 phosphorylation in human Treg cells) associated with IL-2-24 (N26Q/N29S/N88R) (ligand) MAPTSSSTKKTQLQLEHLLLDLQMILQGISNYKNPKLTRMLTFKFYMPKKATELKHLQCLEEELKPLEEVLNLAQSKNFHLRPRDLISRINVIVLELKGSETTFMCEYADETATIVEFLNRWITFAQSIISTLT reads 0.209

The measured EC50 (STAT5 phosphorylation in human Treg cells) associated with PEGylated IL-2-24 (ligand, mono-PEGylated with 20 kDa mPEG-butyraldehyde (sodium cyanoborohydride); site not stated) MAPTSSSTKKTQLQLEHLLLDLQMILQGISNYKNPKLTRMLTFKFYMPKKATELKHLQCLEEELKPLEEVLNLAQSKNFHLRPRDLISRINVIVLELKGSETTFMCEYADETATIVEFLNRWITFAQSIISTLT reads 6.02
